Where do the numbers come from? From patent US11566007B2.

Test system: NCI-H358 (K-Ras G12C)
measurement_protocol: CellTiter-Glo cell viability assay, NCI-H358
Type: cell-based, human
experimental_context: Homo sapiens, NCI-H358, 120 h, NCI-H358, 5-day treatment; class symbols; read-out: Additional H358 Cell Viability assay data (K-Ras G12C, IC50)
Description: Note—The following protocol describes a procedure for monitoring cell viability of K-Ras mutant cancer cell lines in response to a compound of the invention. Other RAS isoforms may be employed, though the number of cells to be seeded will vary based on cell line used. Test compounds (132.5 nL) were directly dispensed into the assay plates containing cells. […] Luminescence was measured using the PerkinElmer Enspire. […]
pIC50: −log10 of the molar value.
Please respond with reported pIC50 for every item in the list.

Task: Which pIC50 is reported for this molecule? C=CC(=O)N1CCC2(C1)CN(C(=O)N(C)[C@H](C(=O)N[C@H]1Cc3nc(cs3)-c3ccc4c(c3)c(c(-c3cccnc3[C@H](C)OC)n4CC(F)(F)F)CC(C)(C)COC(=O)[C@@H]3CCCN(N3)C1=O)C(C)C)C2 [Example A603]
Result: 7.00 to 8.00

Task: Entry C=CC(=O)N1CCC(F)(C(=O)N(C)[C@H](C(=O)N[C@H]2Cc3nc(cs3)-c3ccc4c(c3)c(c(-c3cccnc3[C@H](C)OC)n4CC)CC(C)(C)COC(=O)[C@@H]3CCCN(N3)C2=O)C(C)C)CC1 (atropisomer, axis not shown) [Example A700] please
Result: > 8.00

Task: Thanks! And CCn1c(-c2cccnc2[C@H](C)OC)c2c3cc(ccc31)-c1cccc(c1)C[C@H](NC(=O)[C@H](C(C)C)N(C)C(=O)C1CCN(C(=O)C#C[C@@H]3CC(F)(F)CN3C)C1)C(=O)N1CCC[C@H](N1)C(=O)OCC(C)(C)C2 (stereo partly shown) [Example A526] ?
Result: > 8.00

Task: Can you check C=CC(=O)N1CCO[C@@H]2CN(C(=O)N(C)[C@H](C(=O)N[C@H]3Cc4nc(cs4)-c4ccc5c(c4)c(c(-c4cccnc4[C@H](C)OC)n5CC)CC(C)(C)COC(=O)[C@@H]4CCCN(N4)C3=O)C(C)C)C[C@@H]21 (atropisomer, axis not shown) [Example A714] next?
Result: > 8.00
